- Test system: m-IMCD3 cells
- method-description: Inhibition of PGE2-stimulated in vitro cyst formation in m-IMCD3 cells
- Type: cell-based, mouse
- protocol-conditions: Mus musculus, mIMCD3, 144 h, 10 μM; mean cyst area, 100% for (DMSO + PGE2) and 0% for DMSO control; 6 days of culture; read-out: % Cyst area after incubation with 10 μM test compound
Below, each entry is listed alongside its reported activity at 10 µM.
Provide the reading as a plain figure in %.

compound="O=C(NCc1ccc(F)cc1)N1CCc2nc(N3C4CCC3CNC4)sc2C1 [Example 55]" target="m-IMCD3 cells" recorded_value=0
compound="COc1ccccc1OCC(=O)N1CCc2nc(N3C4CCC3CNC4)sc2C1 [Example 138]" target="m-IMCD3 cells" recorded_value=0
compound="CC(C)NC(=O)N1CCc2nc(N3C4CCC3CNC4)sc2C1 [Example 51]" target="m-IMCD3 cells" recorded_value=9
compound="Cc1cc(F)ccc1CC(=O)N1CCc2nc(N3C4CCC3CNC4)sc2C1 [Example 156]" target="m-IMCD3 cells" recorded_value=0
compound="CN1CC2CCC(C1)N2c1nc2c(s1)CN(C(=O)CC1CCCC1)C2 [Example 83]" target="m-IMCD3 cells" recorded_value=4
compound="O=C(C(O)c1ccc(F)cc1)N1CCc2nc(N3C4CCC3CNC4)sc2C1 (stereo not shown) [Example 132]" target="m-IMCD3 cells" recorded_value=-6

-- ask Fill in: activity at 10 µM of O=C(C(F)C1CCCC1)N1CCc2nc(N3C4CCC3CNC4)sc2C1 (stereo not shown) [Example 34] is ___
-- reply -2

-- ask What do you get for CC1(CC(=O)N2CCc3nc(N4C5CCC4CNC5)sc3C2)CCC1 [Example 130] ?
-- reply -5

-- ask What do you get for O=C(NC1CCCC1)N1Cc2nc(N3C4CCC3CNC4)sc2C1 [Example 68] ?
-- reply -4

-- ask What do you get for CC1(C)CN(C(=O)CC2CCC(F)(F)CC2)Cc2sc(N3CCNCC3)nc21 [Example 100] ?
-- reply -1

-- ask What do you get for COc1ccccc1CC(=O)N1CCc2nc(N3C4CCC3CNC4)sc2C1 [Example 139] ?
-- reply -1

-- ask What do you get for O=C(CCc1ccccc1)N1CCc2nc(N3C4CCC3CNC4)sc2C1 [Example 5] ?
-- reply -5

-- ask What do you get for CN1CC2CCC(C1)N2c1nc2c(s1)CN(C(=O)NC1CCCC1)C2 [Example 82] ?
-- reply 2
